Biological target: Human PD-L1/PD-1 (Homo sapiens, UniProt Q9NZQ7)
Construct: TVMV protease cleavage site (C); made in house; host or cells: HEK293T cells
Sequence (Q9NZQ7 with tags, fused parts or gaps): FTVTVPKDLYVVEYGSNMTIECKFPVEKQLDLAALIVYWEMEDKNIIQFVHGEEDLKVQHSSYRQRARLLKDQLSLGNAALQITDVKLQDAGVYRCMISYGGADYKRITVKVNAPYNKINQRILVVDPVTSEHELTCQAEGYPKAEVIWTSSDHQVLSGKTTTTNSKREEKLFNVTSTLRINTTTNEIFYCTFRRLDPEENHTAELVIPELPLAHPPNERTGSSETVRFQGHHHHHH
Assay: HTRF Human PD-L1/PD-1 binding assay (PD-1-Ig/PD-L1-His)
Conditions: PD-L1-His 10 nM, PD-1-Ig 20 nM; class symbol; read-out: HTRF Human PD-L1/PD-1 Binding Assay IC50 Range
Where a SMILES comes first, the peptide text is derived from it. Bridges are numbered along the chain shown (N, C = ends). [ ]: non-standard residue; d: D form. ξ: configuration not given here. Bta = N[C@@H](Cc1csc2ccccc12)C(=O)O; Hyp = O=C(O)[C@@H]1C[C@@H](O)CN1; NMeNle = CCCC[C@H](NC)C(=O)O; NMeA = CN[C@@H](C)C(=O)O; Dab = NCC[C@H](N)C(=O)O; Dap = NC[C@H](N)C(=O)O; ξC = NC(CS)C(=O)O
attributeMeasured: IC50

{"columns": ["molecule", "testSystem", "IC50"],
 "data": [
  ["CCCC[C@H]1C(=O)N(C)[C@@H](CCCC)C(=O)N[C@@H](CCN)C(=O)NC(C(=O)NCC(N)=O)CSCC(=O)N[C@@H](Cc2ccc(O)cc2)C(=O)N(C)[C@@H](C)C(=O)N[C@@H](CC(N)=O)C(=O)N2CCC[C@H]2C(=O)N[C@@H](CC(N)=O)C(=O)N[C@@H](CC(C)C)C(=O)N2C[C@H](O)C[C@H]2C(=O)N[C@@H](Cc2c[nH]c3ccccc23)C(=O)N[C@@H](CO)C(=O)N[C@@H](Cc2csc3ccccc23)C(=O)N1C (some centres unmarked) [Example 9165] ({CH2CO}-Y[NMeA]NPNL[Hyp]WS[Bta][NMeNle][NMeNle][Dab][ξC]G-NH2; thioether N-14)", "Human PD-L1/PD-1 (Homo sapiens, UniProt Q9NZQ7)", "1 to 9.9 nM"]
]}

Now consider the entry below.
Record CCCC[C@H]1C(=O)N(C)[C@@H](CCCC)C(=O)N[C@@H](CCC(=O)O)C(=O)NC(C(=O)NCC(N)=O)CSCC(=O)N[C@@H](Cc2ccc(O)cc2)C(=O)N(C)[C@@H](C)C(=O)N[C@@H](CC(N)=O)C(=O)N2CCC[C@H]2C(=O)N[C@@H](CC(N)=O)C(=O)N[C@@H](CC(C)C)C(=O)N2CCC[C@H]2C(=O)N[C@@H](Cc2c[nH]c3ccccc23)C(=O)N[C@@H](CN)C(=O)N[C@@H](Cc2c[nH]c3ccccc23)C(=O)N1C (some centres unmarked) [Example 9176] ({CH2CO}-Y[NMeA]NPNLPW[Dap]W[NMeNle][NMeNle]E[ξC]G-NH2; thioether N-14) ; system Human PD-L1/PD-1 (Homo sapiens, UniProt Q9NZQ7); IC50 = 100 to 990 nM

// provenance: patent US10538555B2
